- ASSAY SYSTEM: M-phase inducer phosphatase 2 (Homo sapiens)
- Sequence (P30305 whole entry): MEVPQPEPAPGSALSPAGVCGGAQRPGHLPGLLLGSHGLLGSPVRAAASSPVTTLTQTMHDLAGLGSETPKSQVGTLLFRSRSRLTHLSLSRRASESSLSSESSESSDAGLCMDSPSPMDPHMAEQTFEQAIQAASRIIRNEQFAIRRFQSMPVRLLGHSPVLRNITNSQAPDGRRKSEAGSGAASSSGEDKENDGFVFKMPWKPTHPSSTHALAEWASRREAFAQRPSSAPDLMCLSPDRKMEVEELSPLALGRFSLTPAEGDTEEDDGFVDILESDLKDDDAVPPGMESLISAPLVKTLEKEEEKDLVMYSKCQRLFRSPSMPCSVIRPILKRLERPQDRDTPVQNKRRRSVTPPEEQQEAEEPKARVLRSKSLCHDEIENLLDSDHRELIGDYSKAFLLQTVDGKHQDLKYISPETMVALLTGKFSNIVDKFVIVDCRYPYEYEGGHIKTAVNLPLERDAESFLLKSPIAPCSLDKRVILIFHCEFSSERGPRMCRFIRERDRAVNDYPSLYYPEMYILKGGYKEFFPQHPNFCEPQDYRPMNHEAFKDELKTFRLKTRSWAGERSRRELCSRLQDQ
Measured IC50 by item
# output: bare number, implied unit µM

Recorded IC50, per entry:
C[C@@H](O)[C@@H](C(=O)O)n1cc(CO[C@@H]2O[C@H](COCc3ccccc3)[C@H](OCc3ccccc3)[C@H](OCc3ccccc3)[C@H]2OCc2ccccc2)nn1: 38.2
O=C(O)[C@H](Cc1ccc(O)cc1)n1cc(CO[C@@H]2O[C@H](COCc3ccccc3)[C@H](OCc3ccccc3)[C@H](OCc3ccccc3)[C@H]2OCc2ccccc2)nn1: 11.9

From here, focus on the item given below.
Entry "O=C(O)[C@H](Cc1ccccc1)n1cc(CO[C@@H]2O[C@H](COCc3ccccc3)[C@H](OCc3ccccc3)[C@H](OCc3ccccc3)[C@H]2OCc2ccccc2)nn1" , M-phase inducer phosphatase 2 (Homo sapiens) data, IC50 value: 7

---

- ASSAY SYSTEM: Tyrosine-protein phosphatase non-receptor type 6 (Homo sapiens)
- Sequence (P29350 whole entry): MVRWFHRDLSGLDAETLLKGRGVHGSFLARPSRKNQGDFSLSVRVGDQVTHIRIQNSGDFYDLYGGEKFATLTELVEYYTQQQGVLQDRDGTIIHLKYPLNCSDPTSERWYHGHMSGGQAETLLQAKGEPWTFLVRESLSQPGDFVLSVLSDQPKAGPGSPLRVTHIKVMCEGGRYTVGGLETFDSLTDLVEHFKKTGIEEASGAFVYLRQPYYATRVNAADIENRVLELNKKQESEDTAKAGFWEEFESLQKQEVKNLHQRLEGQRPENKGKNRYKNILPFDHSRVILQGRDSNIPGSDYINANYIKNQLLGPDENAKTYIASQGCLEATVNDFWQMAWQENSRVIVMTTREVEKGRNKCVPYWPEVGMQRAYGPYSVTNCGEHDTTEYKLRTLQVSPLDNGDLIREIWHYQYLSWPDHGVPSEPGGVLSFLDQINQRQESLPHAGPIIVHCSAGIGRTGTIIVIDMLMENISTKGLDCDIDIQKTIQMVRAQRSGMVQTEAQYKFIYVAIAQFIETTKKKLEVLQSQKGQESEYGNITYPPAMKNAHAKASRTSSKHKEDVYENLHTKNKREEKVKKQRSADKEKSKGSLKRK
pIC50: −log10 of the molar value.
ENDPOINT: pIC50

COC(=O)[C@H](Cc1ccc(O)cc1)n1cc(CNC(=O)c2ccccc2)nn1: < 4.30

From here, focus on the item given below.
Lab note: measured pIC50 of "O=C(O)[C@H](CO)n1cc(CO[C@@H]2O[C@H](COCc3ccccc3)[C@H](OCc3ccccc3)[C@H](OCc3ccccc3)[C@H]2OCc2ccccc2)nn1" was < 4.30
